Values compiled from patent US10717716B2.

biological target: human recombinant HDAC1 (Homo sapiens, UniProt Q13547); construct: purchased Enzo Life Science BML-SE456; experiment: HDAC1 enzyme activity inhibition assay (HDAC Fluorimetric Drug Discovery Kit); type: biochemical; settings: human recombinant HDAC1, Fluor de Lys substrate 10 μM, 30° C. 60 minutes
Sequence (Q13547 whole entry): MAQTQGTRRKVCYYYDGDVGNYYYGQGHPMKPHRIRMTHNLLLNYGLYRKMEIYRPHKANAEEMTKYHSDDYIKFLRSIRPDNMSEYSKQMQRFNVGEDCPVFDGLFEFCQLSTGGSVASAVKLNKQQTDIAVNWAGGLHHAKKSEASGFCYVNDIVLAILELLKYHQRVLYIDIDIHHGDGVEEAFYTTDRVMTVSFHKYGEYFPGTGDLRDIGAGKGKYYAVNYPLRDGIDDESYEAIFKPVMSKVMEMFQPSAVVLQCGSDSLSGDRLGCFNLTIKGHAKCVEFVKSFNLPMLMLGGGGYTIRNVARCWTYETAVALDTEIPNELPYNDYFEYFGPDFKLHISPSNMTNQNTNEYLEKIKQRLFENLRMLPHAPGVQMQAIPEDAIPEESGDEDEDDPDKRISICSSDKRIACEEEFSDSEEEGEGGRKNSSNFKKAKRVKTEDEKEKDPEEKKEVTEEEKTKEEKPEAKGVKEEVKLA
Consider the following compounds and their measured pIC50 readings.
FYI, pIC50 means -log10 of a concentration in mol per litre.

Consider the following illustrative entries.
CCN1CCN(C(=O)N(Cc2ccc(-c3nnc(C(F)(F)F)o3)cc2F)c2cccc(F)c2)CC1 [Compound 21866] yielded pIC50 of 4.62

Cn1ncc2ccc(-c3ccc(N(Cc4ccc(-c5nnc(C(F)(F)F)o5)cc4)C(=O)N4CCS(=O)(=O)CC4)cc3)cc21 [Compound 21487] yielded pIC50 of 5.71

CCN1CCN(C(=O)N(Cc2ccc(-c3nnc(C(F)F)o3)cn2)c2cccc(Cl)c2)CC1 [Compound 21879] yielded pIC50 of 4.55

CCN1CCN(C(=O)N(Cc2ccc(-c3nnc(C(F)(F)F)o3)cc2F)c2ccc(C)c(Cl)c2)CC1 [Compound 21660] yielded pIC50 of 4.61

O=C(N1CCS(=O)(=O)CC1)N(Cc1ccc(-c2nnc(C(F)(F)F)o2)cc1)c1cccc(-c2ccc3c(c2)OCO3)c1 [Compound 21437] yielded pIC50 of 5.09

CCN1CCN(C(=O)N(Cc2ccc(-c3nnc(C(F)(F)F)o3)cn2)c2cccc(F)c2)CC1 [Compound 21867] yielded pIC50 of 4.44

Cn1ncc2ccc(N(Cc3ccc(-c4nnc(C(F)(F)F)o4)cc3F)C(=O)N3CCS(=O)(=O)CC3)cc21 [Compound 21545] yielded pIC50 of 5.35

Cn1ncc2c(N(Cc3ccc(-c4nnc(C(F)F)o4)cc3F)C(=O)N3CCS(=O)(=O)CC3)cccc21 [Compound 21710] yielded pIC50 of 4.17

CCN1CCN(C(=O)N(Cc2ccc(-c3nnc(C(F)F)o3)cc2F)c2cccc(Cl)c2)CC1 [Compound 21878] yielded pIC50 of 4.67

Now, please, on to the next compound.
O=C(N1CCS(=O)(=O)CC1)N(Cc1ccc(-c2nnc(C(F)(F)F)o2)cc1)c1cccc(Br)c1 [Compound 21393] yielded pIC50 of 5.05

----------
Biological target: human recombinant HDAC6 (Homo sapiens, UniProt Q9UBN7)
Construct: purchased Calbiochem 382180
Sequence (Q9UBN7 1-1215): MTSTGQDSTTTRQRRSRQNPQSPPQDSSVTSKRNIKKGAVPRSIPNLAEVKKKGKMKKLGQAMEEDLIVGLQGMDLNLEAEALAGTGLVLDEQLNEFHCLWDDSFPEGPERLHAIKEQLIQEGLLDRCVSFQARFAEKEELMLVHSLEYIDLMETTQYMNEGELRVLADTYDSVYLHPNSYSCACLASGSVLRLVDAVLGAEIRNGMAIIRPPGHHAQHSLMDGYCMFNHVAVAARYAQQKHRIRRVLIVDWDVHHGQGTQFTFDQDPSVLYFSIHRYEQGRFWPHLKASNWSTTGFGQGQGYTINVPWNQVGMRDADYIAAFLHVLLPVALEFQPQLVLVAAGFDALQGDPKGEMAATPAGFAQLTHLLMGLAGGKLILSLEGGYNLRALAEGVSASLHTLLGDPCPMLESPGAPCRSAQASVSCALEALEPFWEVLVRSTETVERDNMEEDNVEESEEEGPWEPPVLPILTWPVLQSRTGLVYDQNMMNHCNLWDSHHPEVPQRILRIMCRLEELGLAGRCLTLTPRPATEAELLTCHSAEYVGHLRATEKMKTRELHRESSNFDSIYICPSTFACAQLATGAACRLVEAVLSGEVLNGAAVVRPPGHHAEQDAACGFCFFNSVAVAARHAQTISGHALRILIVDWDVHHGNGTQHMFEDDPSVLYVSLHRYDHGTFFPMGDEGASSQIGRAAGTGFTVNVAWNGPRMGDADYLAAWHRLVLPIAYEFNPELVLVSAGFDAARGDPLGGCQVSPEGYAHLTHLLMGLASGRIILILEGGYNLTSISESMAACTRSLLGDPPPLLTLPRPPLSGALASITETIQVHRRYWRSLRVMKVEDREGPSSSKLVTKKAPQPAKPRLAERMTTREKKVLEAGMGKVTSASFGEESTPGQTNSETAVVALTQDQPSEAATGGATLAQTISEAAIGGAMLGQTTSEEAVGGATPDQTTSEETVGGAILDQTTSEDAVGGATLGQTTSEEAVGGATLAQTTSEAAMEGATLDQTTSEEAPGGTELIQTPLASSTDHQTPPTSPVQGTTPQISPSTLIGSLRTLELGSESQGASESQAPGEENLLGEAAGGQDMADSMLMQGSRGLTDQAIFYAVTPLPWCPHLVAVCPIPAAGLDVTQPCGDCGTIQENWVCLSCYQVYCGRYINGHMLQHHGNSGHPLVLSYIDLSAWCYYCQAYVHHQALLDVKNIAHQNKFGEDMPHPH
Assay: HDAC6 enzyme activity inhibition assay (HDAC Fluorimetric Drug Discovery Kit)
Type: biochemical
Conditions: human recombinant HDAC6, same protocol as HDAC1; read-out: HDAC6
Description: In order to examine the HDAC6 selectivity of the compounds of formula I of the present invention by HDAC1 and HDAC6 enzymatic activity inhibition assays, an experiment was performed using a conventional substance as a control. HDAC enzyme activity was measured using a HDAC Fluorimetric Drug Discovery Kit (BML-AK511, 516, Enzo Life Science). […] Based on the resulting values, each IC5, value was calculated using GraphPad Prism4.0 program.
IC50 strictly less than 100 nM = rule met. Otherwise rule not met.

Past entries and their recorded results:
Is IC50 strictly under 100 nM for the entry CCc1ccc(N(Cc2ccc(-c3nnc(C(F)(F)F)o3)cc2F)C(=O)N2CCS(=O)(=O)CC2)cc1 ?
rule not met

Is IC50 strictly under 100 nM for the entry Cn1ncc2ccc(-c3cccc(N(Cc4ccc(-c5nnc(C(F)(F)F)o5)cc4)C(=O)N4CCS(=O)(=O)CC4)c3)cc21 ?
rule not met

Is IC50 strictly under 100 nM for the entry Cc1ccc(N(Cc2ccc(-c3nnc(C(F)F)o3)cc2F)C(=O)N2CCOCC2)c(F)c1 ?
rule met

Further cases:
Is IC50 strictly under 100 nM for the entry CCN1CCN(C(=O)N(Cc2ccc(-c3nnc(C(F)F)o3)cc2)c2ccc(OC)cc2)CC1 ?
rule met

Is IC50 strictly under 100 nM for the entry O=C(NCCN1CCN(c2ccc(Cl)c(Cl)c2)CC1)N(Cc1ccc(-c2nnc(C(F)F)o2)cc1F)c1ccccc1 ?
rule not met

Is IC50 strictly under 100 nM for the entry O=C(N1CCS(=O)(=O)CC1)N(Cc1ccc(-c2nnc(C(F)F)o2)cc1Cl)c1ccccc1 ?
rule not met

Is IC50 strictly under 100 nM for the entry CCCCN(Cc1ccc(-c2nnc(C(F)(F)F)o2)cc1)C(=O)N1CCOCC1 ?
rule not met

Is IC50 strictly under 100 nM for the entry CC(C)(C)OC(=O)N1CCN(C(=O)N(Cc2ccc(-c3nnc(C(F)(F)F)o3)cc2)c2ccccc2)CC1 ?
rule not met

Is IC50 strictly under 100 nM for the entry O=C(NCc1ccccc1)N(Cc1ccc(-c2nnc(C(F)(F)F)o2)cc1)c1ccccc1 ?
rule not met

Is IC50 strictly under 100 nM for the entry CCN1CCN(C(=O)N(Cc2ccc(-c3nnc(C(F)(F)F)o3)cc2F)c2ccc(F)c(Br)c2)CC1 ?
rule not met

Is IC50 strictly under 100 nM for the entry C[C@@H]1CN(C(=O)N(Cc2ccc(-c3nnc(C(F)(F)F)o3)cc2)c2ccccc2)C[C@H](C)N1C ?
rule met
